# Procedure Details: Quantitative High-Throughput drug screen in 47 multiple myeloma cell lines against the NCATS MIPE library collection: SKMM1_PLB cell viability assay (AID 1919863); also: series mostly up to about 46 µM; nearly all actives have a fitted effect of over 35% in size
# Experimental Parameters: SKMM1 myeloma viability, CellTiter-Glo ATP, 48 h; hits give low values
# From the text: PI: Beverly A. Mock Ph.D. Laboratory of Cancer Biology and Genetics, Center for Cancer Research, National Cancer Institute, National Institute of Health, Bethesda, Maryland […] 5; Detector; 425V; Luminescence; Viewlux PerkinElmer. […] 1. […] Briefly, the corresponding myeloma cell lines were screened in 1,536-well plates with 500 cells, 5-uL per well for inhibition of cell viability (assessed by measuring ATP levels with CellTiterGlo). […]
Results filed as inconclusive are left out.
Property Label: viability (%)
Please respond with the number in % and leave the unit unwritten.

Record excerpt, results attached:
CN1C(C(=O)Nc2ccccn2)=C(O)c2ccccc2S1(=O)=O	103
NCCS(=O)(=O)O	109
CC1COc2c(N3CCN(C)CC3)c(F)cc3c(=O)c(C(=O)O)cn1c23 (stereo not given)	135
CC(C(=O)O)c1cccc(C(=O)c2ccccc2)c1 (stereo not given)	106
Nc1ccn([C@H]2CC[C@@H](CO)O2)c(=O)n1	109

Input NC12CC3CC(CC(C3)C1)C2 . Output viability: 134

Input Cc1cc(C(C)(C)C)cc(C)c1CC1=NCCN1 . Output viability: 116

Input COc1ccc2[nH]cc(CCNC(C)=O)c2c1 . Output viability: 123

Input CCN1CCCC1CNC(=O)c1cc(S(=O)(=O)CC)c(N)cc1OC (stereo not given) . Output viability: 121

Input CCOC(=O)C(C)(C)Oc1ccc(Cl)cc1 . Output viability: 104

Input O=C1N(c2ccccc2)c2ccccc2C1(Cc1ccncc1)Cc1ccncc1 . Output viability: 122

Input CC12CC3CC(C)(C1)CC(N)(C3)C2 . Output viability: 125

Input O=C(CCCN1CCC(O)(c2ccc(Cl)cc2)CC1)c1ccc(F)cc1 . Output viability: 92.3

Input CC[N+](CC)(CC)CCOc1cccc(OCC[N+](CC)(CC)CC)c1OCC[N+](CC)(CC)CC . Output viability: 112

Input CCOC(=O)Nc1ccc(NCc2ccc(F)cc2)nc1N . Output viability: 134

Input Cc1cn([C@H]2C=C[C@@H](CO)O2)c(=O)[nH]c1=O . Output viability: 87.6

Input Cn1c(=O)c2[nH]cnc2n(C)c1=O . Output viability: 104

Input COc1ccccc1OCC(O)CN1CCN(CC(=O)Nc2c(C)cccc2C)CC1 (stereo not given) . Output viability: 110

Input NS(=O)(=O)c1cc2c(cc1Cl)NCNS2(=O)=O . Output viability: 114

Input N[C@@H](Cc1c[nH]c2ccc(O)cc12)C(=O)O . Output viability: 109
